Where these numbers come from: patent US20240150465A1

System Under Test: T1, recombinant human DLL3 (human, UniProt Q9NYJ7 27-492)
T1 sequence: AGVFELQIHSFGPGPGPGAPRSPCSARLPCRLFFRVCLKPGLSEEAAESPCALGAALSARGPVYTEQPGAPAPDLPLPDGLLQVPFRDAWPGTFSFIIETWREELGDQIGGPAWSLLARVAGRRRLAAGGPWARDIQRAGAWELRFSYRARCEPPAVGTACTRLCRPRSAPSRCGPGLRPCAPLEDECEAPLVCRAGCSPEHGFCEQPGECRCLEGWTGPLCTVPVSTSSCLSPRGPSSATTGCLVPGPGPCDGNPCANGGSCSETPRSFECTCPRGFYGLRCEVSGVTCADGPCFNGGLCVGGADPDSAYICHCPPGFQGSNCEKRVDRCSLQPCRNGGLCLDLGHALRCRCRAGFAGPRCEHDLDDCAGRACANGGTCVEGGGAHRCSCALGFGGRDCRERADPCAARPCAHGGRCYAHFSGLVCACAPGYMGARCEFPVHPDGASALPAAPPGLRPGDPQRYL
Experimental Details: Octet binning on SA sensor; Antibody A (biotinylated, loaded first): D30316AE02-SG1; then 20 nM human DLL3, then 80 nM Antibody B
List of competition ratio (Antibody B to Antibody A) values.
Returns: the value as a bare number; no unit string appended.

Challenge: Look up and report measured competition ratio (Antibody B to Antibody A) for this entry: DL309-SG1 (antibody, human IgG1, kappa, V domains shown, Variable regions of a previously reported anti-DLL3 antibody on SG1/SK1; Also used biotin-labelled as a first antibody) VH: QVQLQQSGGDLMKPGASVKISCKAAGYTFSNYYIEWVKQRPGHGLEWIGEILPGSGSTTYNEKFKGKASFTADTSSNTAYMQLSSLTSEDSAVYYCARWGAREPGFPYWGQGTLVTVSA VL: DIVMTQSQKFMSTSVGDRVSVTCKASQNVGTNVAWYQQKPGQSPKALIYSASYRYSGVPDRFTGSGSGTDFTLTISNVQSEDLAEYFCQQYNNYPLTFGAGTKLELKR
Response given: 1.4

Challenge: Look up and report measured competition ratio (Antibody B to Antibody A) for this entry: D30841AE05-SG1 (antibody, human IgG1, kappa, V domains shown, Humanized variant of DLA0841 with SG1 heavy and SK1 light constant regions; Labelled with NHS-PEG4-Biotin when used as the first (immobilized) antibody in the Octet assay) VH: QVQLKESGPALVKPTQTLTLTCTFSGFSLSSSYDMGWVRQAPGQGLEWMGTIYTGDYSTDYASWAKGRVTITADESTSTAYMELSSLRSEDTAVYYCARNTGYGYFGLWGQGTLVTVSS VL: DIQLTQSPSFLSASVGDRVTITCQSTESVYGSDWLSWYQQKPGQPPKLLIYQASNLEIGVPSRFSGSGSGTDFTLTINSLEAEDAATYYCQGYYSGYIYAFGGGTKVEIKR
Response given: 1.3

// next item, competition ratio (Antibody B to Antibody A) requested
Challenge: Look up and report measured competition ratio (Antibody B to Antibody A) for this entry: DLL3-4-SG1 (antibody, human IgG1, kappa, V domains shown, Variable regions of a previously reported anti-DLL3 antibody on SG1/SK1; Used as a second antibody only) VH: QVQLQESGPGLVKPSETLSLTCTVSGGSISSYYWSWIRQPPGKGLEWIGYVYYSGTTNYNPSLKSRVTISVDTSKNQFSLKLSSVTAADTAVYYCASIAVTGFYFDYWGQGTLVTVSS VL: EIVLTQSPGTLSLSPGERVTLSCRASQRVNNNYLAWYQQRPGQAPRLLIYGASSRATGIPDRFSGSGSGTDFTLTISRLEPEDFAVYYCQQYDRSPLTFGGGTKLEIKR
Response given: 1.3
